Recorded SPOT peptide array binding signal intensity for the following binders
Target: CaBem1-D1
Assay: SPOT peptide array binding signal intensity (averaged, normalized) (arbitrary units (background-subtracted, floor 0; scale differs between SH3 domains)); higher = stronger binding of the SH3 domain to the peptide
No unit in the answer, please; the number alone is enough.

Which SPOT peptide array binding signal intensity is reported for this binder? `RAPPPVPKKPSSRIA`
12.5

Record: `SLSRRRFSLPSMPNV`
112

And then `KTKQQKPAIPQKKSF` , what is it?
3

How about this binder: `PVLPPPRSPNRPTLS`
31

Would you kindly repeat that for `STPQTMRQAPKRPDA` ?
174

Please answer likewise for `NGRRRPKFRVQLSGN`
74.5

Now the binder `VATSTSPKLPPRGKQ`
19.5

// query: `YVRRRPRVRLEPLLS`
81.5

Now consider `AHFQPQRTAPKPPIS` .
958

What would you report for `RRRIAYPFYPFKKLG` ?
23
